We begin with a simple list: items and their reported EC50.
Target: Free fatty acid receptor 1 (Homo sapiens, UniProt O14842)
Sequence (O14842 whole entry): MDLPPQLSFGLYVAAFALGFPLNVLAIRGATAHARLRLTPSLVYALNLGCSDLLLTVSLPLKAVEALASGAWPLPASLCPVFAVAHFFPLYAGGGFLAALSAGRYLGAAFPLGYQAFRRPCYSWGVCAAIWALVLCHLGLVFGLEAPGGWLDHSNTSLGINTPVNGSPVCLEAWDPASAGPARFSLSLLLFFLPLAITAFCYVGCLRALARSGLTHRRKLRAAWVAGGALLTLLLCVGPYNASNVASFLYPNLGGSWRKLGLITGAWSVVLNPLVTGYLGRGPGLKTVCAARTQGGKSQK
Assay summary: 96-Well Adherent Reporter Cell Assay
Condition: 22 °C
Please respond with the number in nM and leave the unit unwritten.

{"Smiles input": "O=C(O)CCc1ccc(NCc2ccc(C(F)(F)F)cc2)cc1", "Units label": "nM", "EC50": 2000}

Now examine the next entry.
Which EC50 reading was recorded for the compound O=C(O)CCc1ccc(NCc2ccc(Cl)s2)cc1 ?
2000

###

Target: Free fatty acid receptor 1 (Homo sapiens, UniProt O14842)
Assay summary: 96-Well Adherent Reporter Cell Assay
Condition: 22 °C
// reported EC50 for each item listed

Consider the worked cases shown below.
{"Molecule": "CN(C)Cc1ccc(CNc2ccc(CCC(=O)O)cc2)cc1", "EC50": "> 31.6 µM"}
{"Molecule": "O=C(O)CCc1ccc(NCc2cccnc2)cc1", "EC50": "> 31.6 µM"}

// returns reported EC50 for input CC(C(=O)O)c1ccc(NCc2ccc(-c3ccccc3)cc2)cc1 (stereo not drawn)
> 31.6 µM

FYI, the data here is from BindingDB's records for doi:10.1016/j.bmcl.2006.12.084.
